- system_name: human 5-HT1AR (Homo sapiens, UniProt P08908)
- Construct: expressed in transfected cells
- Sequence (P08908 whole entry): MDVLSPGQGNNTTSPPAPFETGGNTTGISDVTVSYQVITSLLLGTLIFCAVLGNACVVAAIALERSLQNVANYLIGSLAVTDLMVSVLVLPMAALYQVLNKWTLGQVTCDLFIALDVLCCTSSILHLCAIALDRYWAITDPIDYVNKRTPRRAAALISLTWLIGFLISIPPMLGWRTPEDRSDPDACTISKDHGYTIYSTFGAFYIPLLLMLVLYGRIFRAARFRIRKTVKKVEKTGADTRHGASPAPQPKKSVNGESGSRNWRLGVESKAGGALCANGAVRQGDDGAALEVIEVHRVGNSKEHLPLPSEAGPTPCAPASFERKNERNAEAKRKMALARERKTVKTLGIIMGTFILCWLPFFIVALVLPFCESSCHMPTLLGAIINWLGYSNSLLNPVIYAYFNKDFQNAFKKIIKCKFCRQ
- protocol_details: Radioligand binding at 5-HT1A in transfected HEK293 cells
- setup_conditions: HEK293 cells transfected with human 5-HT1AR; [3H]-8-OH-DPAT; at least two independent experiments; read-out: 5-HT1A pKi ± SEM (converted)
quantity: Ki (nM)

> print(dat)
                                   compound  unit.annotation  quantitative.result
1  Cn1cncc1-c1ccccc1OCCNCC1COC(c2ccccc2)(c2ccccc2)O1 (racemic)               nM                 7.41
2  c1ccc(C2(c3ccccc3)OCC(CNCCOc3ccccc3-c3ccncc3)O2)cc1 (racemic)               nM                 9.12
3  Cn1cncc1-c1ccccc1OCCNC[C@@H]1COC(c2ccccc2)(c2ccccc2)O1 [(R)-2]               nM                   12
4  Cn1cncc1-c1ccccc1OCCNC[C@H]1COC(c2ccccc2)(c2ccccc2)O1 [(S)-2]               nM                 4.07

---

- system_name: 5-HT2CR (Rattus norvegicus, UniProt P08909)
- Construct: from tissue; host or cells: frontal cortex of male Sprague-Dawley rats
- Sequence (P08909 33-460): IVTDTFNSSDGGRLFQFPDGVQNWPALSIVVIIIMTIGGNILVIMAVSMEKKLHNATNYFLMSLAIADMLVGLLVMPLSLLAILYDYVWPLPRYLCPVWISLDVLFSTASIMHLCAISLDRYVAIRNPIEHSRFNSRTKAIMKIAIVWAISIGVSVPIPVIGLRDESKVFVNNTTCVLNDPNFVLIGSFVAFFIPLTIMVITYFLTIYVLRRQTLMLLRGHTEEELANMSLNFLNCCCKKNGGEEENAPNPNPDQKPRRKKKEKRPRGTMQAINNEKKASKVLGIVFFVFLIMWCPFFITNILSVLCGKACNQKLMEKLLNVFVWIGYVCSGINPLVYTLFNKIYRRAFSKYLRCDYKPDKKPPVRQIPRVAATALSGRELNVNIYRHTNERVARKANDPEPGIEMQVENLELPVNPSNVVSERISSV
- protocol_details: Radioligand binding at 5-HT2C on rat frontal cortex membranes
- setup_conditions: rat frontal cortex membranes; [3H]mesulergine; read-out: 5-HT2C pKi ± SEM (converted)
quantity: Ki

> print(dat)
                                   compound  quantity   result
1  c1ccc(C2(c3ccccc3)OC[C@H](CNCCOc3ccccc3-c3ccncc3)O2)cc1 [(S)-1]        Ki   955 nM
2  Cn1cncc1-c1ccccc1OCCNC[C@@H]1COC(c2ccccc2)(c2ccccc2)O1 [(R)-2]        Ki  1260 nM
3  Cn1cncc1-c1ccccc1OCCNC[C@H]1COC(c2ccccc2)(c2ccccc2)O1 [(S)-2]        Ki   316 nM
